# key: entry, value: viability at 1000 µM
experiment: in vitro; conditions: human, HepG2 cells
Description: Toxicity in human HepG2 cells assessed as cell viability at 1000 uM by MTT assay relative to control

| smiles.str | unit.abbreviation | viability at 1000 µM |
| --- | --- | --- |
| COc1ccc2nc3c(c(NCCCCCCCN(CC(=O)NCCc4c[nH]c5ccc(OC)cc45)C(=O)CCCC[C@@H]4CCSS4)c2c1)CCCC3 | % | 48.9 |
| COc1ccc2[nH]cc(CCNC(=O)CN(CCCCCCCCNc3c4c(nc5ccccc35)CCCC4)C(=O)CCCC[C@@H]3CCSS3)c2c1 | % | 48.8 |
| COc1ccc2nc3c(c(NCCCCCCCCN(CC(=O)NCCc4c[nH]c5ccc(OC)cc45)C(=O)/C=C/c4ccc(O)c(OC)c4)c2c1)CCCC3 | % | 54.4 |
| COc1ccc2nc3c(c(NCCCCCCCN(CC(=O)NCCc4c[nH]c5ccc(OC)cc45)C(=O)/C=C/c4ccc(O)c(OC)c4)c2c1)CCCC3 | % | 68.7 |
